Biological target: T1, IL-18R on HEK-Blue IL18R reporter cells (UniProt Q13478 19-541; O95256 20-599)
T1 sequence (looked up) 1: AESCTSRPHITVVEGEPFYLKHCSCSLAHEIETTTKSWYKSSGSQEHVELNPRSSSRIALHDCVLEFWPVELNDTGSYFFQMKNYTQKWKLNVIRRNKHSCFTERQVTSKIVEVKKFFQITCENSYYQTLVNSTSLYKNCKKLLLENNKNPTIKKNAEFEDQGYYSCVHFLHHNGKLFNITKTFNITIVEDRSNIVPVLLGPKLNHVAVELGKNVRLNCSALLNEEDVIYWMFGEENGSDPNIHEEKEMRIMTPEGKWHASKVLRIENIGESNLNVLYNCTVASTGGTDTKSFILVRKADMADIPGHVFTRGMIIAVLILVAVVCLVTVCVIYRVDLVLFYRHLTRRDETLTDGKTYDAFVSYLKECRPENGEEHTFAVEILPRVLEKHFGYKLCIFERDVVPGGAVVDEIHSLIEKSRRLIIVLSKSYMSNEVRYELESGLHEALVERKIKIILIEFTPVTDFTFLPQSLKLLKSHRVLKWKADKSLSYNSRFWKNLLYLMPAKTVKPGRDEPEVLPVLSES
T1 sequence (looked up) 2: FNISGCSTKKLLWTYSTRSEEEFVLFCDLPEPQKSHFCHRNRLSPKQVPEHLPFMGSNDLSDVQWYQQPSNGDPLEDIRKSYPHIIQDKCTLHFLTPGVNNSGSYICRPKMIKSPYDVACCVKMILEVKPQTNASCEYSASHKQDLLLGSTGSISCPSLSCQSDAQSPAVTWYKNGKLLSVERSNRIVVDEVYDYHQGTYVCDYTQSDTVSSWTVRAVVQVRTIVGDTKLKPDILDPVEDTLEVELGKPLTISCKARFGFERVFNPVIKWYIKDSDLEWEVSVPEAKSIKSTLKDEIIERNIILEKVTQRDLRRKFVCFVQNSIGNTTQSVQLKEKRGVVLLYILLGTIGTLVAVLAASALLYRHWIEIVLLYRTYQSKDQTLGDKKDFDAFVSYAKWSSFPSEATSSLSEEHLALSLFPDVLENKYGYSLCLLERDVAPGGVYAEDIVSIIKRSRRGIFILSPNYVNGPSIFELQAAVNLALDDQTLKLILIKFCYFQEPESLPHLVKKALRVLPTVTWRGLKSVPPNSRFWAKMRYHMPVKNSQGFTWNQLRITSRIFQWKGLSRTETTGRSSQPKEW
Assay: cell-based or functional assay
measurement.type: EC50, HEK-Blue IL18R SEAP reporter (pM)

{"columns": ["binder", "result"],
 "data": [
  ["IL-18 polypeptide C174 (ligand) YFGKLKSLLSIIRNLNDQVLFIDQGNRPLFEDMTDSDARDNAPRTIFIISMYADSQPRGMAVAISVKCEKISTLSAENKIISFKEMNPPDNIKDTKSDIIFFQRSVPGHDNKMQFESSSYEGYFLAAEKERDLFKLILKKEDELGDRSIMFTVQNED", 0.29],
  ["IL-18 polypeptide C178 (ligand) YFGKLKSKLSIIRNLNDQVLFIDQGNRPLFEDMTDSDARDNAPRTIFIISMYADSQPRGMAVAISVKCEKISTLSAENKIISFKEMNPPDNIKDTKSDIIFFRRSVPGHDNKMQFESSSYEGYFLAAEKERDLFKLILKKEDELGDRSIMFTVQNED", 0.26]
]}
